SYSTEM UNDER TEST: T1, Recombinant human glucose-regulated protein GRP78 (human, UniProt P11021 19-654, limits assumed)
T1 construct: also called Bip
T1 sequence (P11021 19-654 limits assumed): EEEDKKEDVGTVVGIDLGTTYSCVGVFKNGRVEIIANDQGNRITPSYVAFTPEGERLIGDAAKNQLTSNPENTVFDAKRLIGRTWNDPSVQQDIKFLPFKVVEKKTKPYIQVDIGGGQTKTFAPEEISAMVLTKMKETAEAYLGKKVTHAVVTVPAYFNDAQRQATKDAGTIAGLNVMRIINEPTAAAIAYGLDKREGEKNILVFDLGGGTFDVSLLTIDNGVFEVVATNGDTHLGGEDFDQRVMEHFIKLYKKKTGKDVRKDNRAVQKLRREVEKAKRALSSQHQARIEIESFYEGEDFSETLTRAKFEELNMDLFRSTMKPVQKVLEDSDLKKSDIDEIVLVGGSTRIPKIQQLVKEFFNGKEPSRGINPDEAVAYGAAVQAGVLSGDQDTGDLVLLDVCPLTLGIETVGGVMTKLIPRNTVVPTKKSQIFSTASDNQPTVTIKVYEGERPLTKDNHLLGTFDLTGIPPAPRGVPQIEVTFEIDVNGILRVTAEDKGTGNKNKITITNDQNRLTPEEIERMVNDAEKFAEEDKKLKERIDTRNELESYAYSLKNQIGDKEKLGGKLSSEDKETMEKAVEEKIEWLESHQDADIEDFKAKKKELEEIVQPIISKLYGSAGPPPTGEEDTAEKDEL
METHOD: SPR (Biacore T200), recombinant human GRP78 coupled to a CM5 chip, peptide injected at 0.3125-20 µM
TEST READOUT: pKd
FYI, pKd means -log10 of a concentration in mol per litre.

Would you mind telling me what pKd value was observed for SNTRVAP [LVAP (L-configuration peptide SNTRVAP)] ?
5.57

Attribution: patent US11622990
